- Tested system: T1, human TROP2-his protein (human, UniProt P09758 27-274)
- T1 construct: Biotin-labelled in the ELISAs, unlabelled analyte in Biacore; also called biotin-labeled human TROP2-his protein; biotin human Trop2-his
- T1 sequence: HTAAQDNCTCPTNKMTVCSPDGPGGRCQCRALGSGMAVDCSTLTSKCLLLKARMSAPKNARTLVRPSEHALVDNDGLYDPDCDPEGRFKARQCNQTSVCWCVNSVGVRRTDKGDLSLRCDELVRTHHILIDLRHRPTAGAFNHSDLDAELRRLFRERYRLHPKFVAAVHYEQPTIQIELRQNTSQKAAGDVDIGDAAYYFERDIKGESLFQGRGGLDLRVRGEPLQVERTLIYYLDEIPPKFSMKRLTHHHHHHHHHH
- Measurement protocol: SPR Biacore T200, mAb captured on anti-mouse IgG CM5 chip, TROP2-his analyte
Below, each of the binders is paired with its reported koff value.
Your answer is read as s⁻¹, so omit the unit and give the number.

Binder: mouse antibody A1H3C5H8E12 (antibody, V domains shown, Mouse monoclonal IgG purified from hybridoma supernatant) VH: QVQLQQSGAELVRPGTSVKMSCKAAGYTFTNYWIDWVKQRPGHGLEWIGNIFPGGFYTNYNEKFKGKATLTADTSSSTAYMQLSSLTSEDSAIYYCARGGVFDYWGQGTTLTVSS VL: DILLTQSPAILSVSPGERVSFSCRASQSIGTSIHWYQQRTNGSPRLLIKYASESISGIPSRFSGSGSGTDFTLSINSVESEDIADYYCQQSNSWPYTFGGGTKLEIK
koff / s⁻¹: 0.000961

The reported value for mouse antibody A1E11A12D1 (antibody, V domains shown, Mouse monoclonal IgG purified from hybridoma supernatant) VH: QVQLQQSGAELARPGASVKLSCMASGYTFTTYGISWVRQRTGQGLEWIGQIYPGSDYSYCDEDFKGKATLTADKSSSTAYMQLSSLTSEDSAVYFCARASYFDYWGQGTTLTVSS VL: DILLTQSPAILSVSPGERVSFSCRASQTIGTAIHWYQQRANGSPRLLIKYASESISGIPSRFSGSGSGTDFALSINTVESEDFAYYYCQQSNNWPFTFGGGTKLEIR in terms of koff is 8.09e-05

meta.source: patent US20240207432A1
